Molecular target: T1, PACAP-R3 (human, UniProt P41587 24-438)
T1 sequence (looked up): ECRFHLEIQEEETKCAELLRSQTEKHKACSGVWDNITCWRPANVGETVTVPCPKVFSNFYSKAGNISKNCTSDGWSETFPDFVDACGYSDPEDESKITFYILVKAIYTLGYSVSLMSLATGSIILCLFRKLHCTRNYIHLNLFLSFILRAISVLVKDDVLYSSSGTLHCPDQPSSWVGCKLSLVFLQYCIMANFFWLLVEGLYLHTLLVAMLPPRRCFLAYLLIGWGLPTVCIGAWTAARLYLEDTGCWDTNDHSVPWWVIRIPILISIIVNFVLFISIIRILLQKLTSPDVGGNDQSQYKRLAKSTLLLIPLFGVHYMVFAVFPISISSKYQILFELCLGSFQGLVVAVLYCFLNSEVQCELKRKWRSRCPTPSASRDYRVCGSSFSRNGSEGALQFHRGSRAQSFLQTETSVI
Test: cell-based or functional assay
Measure: R3 Selectivity

Binder	R3 Selectivity
HSDAVFTDNYTRLRKQMAAKKYLNSIKNGR [R3P139]	50

a: HSDAVFTDNYTRLRKQMAVKKYLNSIKNKRY [R3P59]
b: HSDAVFTDNYTRLRKQVAAKKYLQSIKKKR [R3P77]
c: HSDAVFTDNYTRLRKQMAAKKYLNSIKNKD [R3P155]
d: HSDAVFTENYTKLRKQLAAKKYLNDLKKGGTSWCEPGWCR [R3P19]
Q) Order the records by R3 Selectivity, with each subsequent value no larger than the one before. Please list the labels according to the requested order.
A) b, c, a, d
